Assay: Cytotoxicity counter-screening (MTT), HepG2
Settings: human, HepG2 cells, HepG2 CC50, 48 h, MTT
Protocol: HepG2 and CHO cells were maintained at 37 °C, under a humidified atmosphere of 5% CO2, in DMEM high glucose media (Gibco) supplemented with 10% heat-inactivated FBS and 1% (v/v) Penicillin-Streptomycin antibiotics. […] After 48 h incubation, the viable cells were measured using the MTT tetrazolium reduction assay, where sterile 25 µL of a 5 mg/mL MTT was added to each well and incubated for 4 h before the […] formazan crystals were dissolved with 100 µL DMSO (Merck) per well. […]
quantity: CC50 at 48 h (µM)

INSERT INTO measurements (molecule, quantity, readout_qualifier, measured_result) VALUES
  ('CCn1cc(-c2ccnc3[nH]c(-c4cccc(CN(C)C)c4)cc23)c(-c2ccc(NC(=O)N(C)C)cc2)n1 [GSK-916, GSK-1070916]', 'CC50 at 48 h', '=', 13.1),
  ('COc1cc2c(Nc3ccc(NC(=O)c4ccccc4)cc3)ncnc2cc1OCCCN1CCOCC1 [ZM-39, ZM-447439]', 'CC50 at 48 h', '>', 15),
  ('CO[C@@H](C(=O)N1Cc2n[nH]c(NC(=O)c3ccc(N4CCN(C)CC4)cc3)c2C1)c1ccccc1 [Danusertib]', 'CC50 at 48 h', '=', 35.1),
  ('O=C(Nc1cccc(Nc2nccc(Nc3cccc(C(F)(F)F)c3)n2)c1)C1CC1 [Aki III, Aurora kinase inhibitor III]', 'CC50 at 48 h', '=', 18.4);

----------
Assay: Kinetic solubility
Type: physicochemical
Conditions: aqueous buffer, kinetic from dmso stock; PBS, pH 7.4; read-out: Kin sol pH 7.4
Entries and their measured solubility kinetic follow.
quantity: solubility kinetic (µM)

INSERT INTO assay_data (query_smiles, output_unit, measured_result) VALUES
  ('O=C(Nc1c[nH]nc1-c1nc2ccc(CN3CCOCC3)cc2[nH]1)NC1CC1', 'µM', 22.2),
  ('COc1cc(N2CCC(N3CCN(C)CC3)CC2)ccc1Nc1ncc(Cl)c(Nc2ccccc2S(=O)(=O)C(C)C)n1', 'µM', 198);

----------
Test: Cytotoxicity counter-screening (MTT), HepG2
Details: human, HepG2 CC50, 48 h, MTT
quantity: CC50 at 48 h

INSERT INTO results (query_smiles, measured_result) VALUES
  ('CCN1CCN(C(=O)Cc2ccc(Nc3ncc(F)c(Nc4ccc(C(=O)Nc5ccccc5Cl)cc4)n3)cc2)CC1', '5.1 µM'),
  ('CCN(CCO)CCCOc1ccc2c(Nc3cc(CC(=O)Nc4cccc(F)c4)n[nH]3)ncnc2c1', '> 15 µM'),
  ('COc1cc(N2CCC(N3CCN(C)CC3)CC2)ccc1Nc1ncc(Cl)c(Nc2ccccc2S(=O)(=O)C(C)C)n1', '8.8 µM'),
  ('O=C(Nc1c[nH]nc1-c1nc2ccc(CN3CCOCC3)cc2[nH]1)NC1CC1', '12.9 µM');

----------
Biological target: recombinant PfArk1 (Plasmodium falciparum, UniProt C6KSQ1)
Sequence (C6KSQ1 entry or part of it): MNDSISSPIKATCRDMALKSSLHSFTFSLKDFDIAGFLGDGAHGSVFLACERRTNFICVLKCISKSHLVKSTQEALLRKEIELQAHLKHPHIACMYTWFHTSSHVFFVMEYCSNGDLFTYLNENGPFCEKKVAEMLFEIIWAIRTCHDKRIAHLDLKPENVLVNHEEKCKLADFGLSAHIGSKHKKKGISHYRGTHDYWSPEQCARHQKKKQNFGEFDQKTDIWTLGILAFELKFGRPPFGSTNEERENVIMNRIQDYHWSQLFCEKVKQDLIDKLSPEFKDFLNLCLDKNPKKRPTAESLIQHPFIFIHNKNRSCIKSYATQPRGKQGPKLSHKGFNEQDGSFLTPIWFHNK
Experiment: KinaseSeeker three-hybrid split-luciferase competitive binding assay, PfArk1
quantity: IC50 (nM)

INSERT INTO assay_data (query_smiles, quantity, measured_result) VALUES
  ('COc1cc(N2CCC(N3CCN(C)CC3)CC2)ccc1Nc1ncc(Cl)c(Nc2ccccc2S(=O)(=O)C(C)C)n1', 'IC50', 146);

----------
Entries and their measured half-life follow.
Test: Human liver microsome clearance
Assay type: in vitro ADME
Details: human liver microsomes; read-out: HL microsome t1/2
Text: In vitro ADME analysis for logD, kinetic solubility (PBS, pH 7.4), human liver microsome clearance and t1/2, rat hepatocyte clearance and t1/2, and protein binding in Albumax media (simulating the malaria parasite culture media) was all performed as per standard assays by TCG LifeSciences.
quantity: half-life (h)

INSERT INTO measurements (molecule, quantity, measured_result) VALUES
  ('COc1cc(N2CCC(N3CCN(C)CC3)CC2)ccc1Nc1ncc(Cl)c(Nc2ccccc2S(=O)(=O)C(C)C)n1 [TAE684, NVP-TAE684]', 'half-life', 0.917),
  ('O=C(Nc1c[nH]nc1-c1nc2ccc(CN3CCOCC3)cc2[nH]1)NC1CC1 [AT83, AT9283]', 'half-life', 6.58);

----------
Molecular target: recombinant PfCLK3 kinase domain (Plasmodium falciparum, UniProt Q8IIL5)
Sequence (Q8IIL5 317-694): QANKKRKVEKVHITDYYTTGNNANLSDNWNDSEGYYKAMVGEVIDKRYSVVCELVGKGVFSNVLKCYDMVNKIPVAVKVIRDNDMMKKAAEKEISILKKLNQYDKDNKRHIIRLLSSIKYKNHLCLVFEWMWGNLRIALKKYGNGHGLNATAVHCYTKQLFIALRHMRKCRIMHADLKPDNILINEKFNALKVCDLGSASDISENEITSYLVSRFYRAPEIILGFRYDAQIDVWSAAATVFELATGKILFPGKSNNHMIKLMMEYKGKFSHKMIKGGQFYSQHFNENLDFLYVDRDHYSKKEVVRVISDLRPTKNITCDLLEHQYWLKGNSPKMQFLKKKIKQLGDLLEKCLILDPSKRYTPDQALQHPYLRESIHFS
Assay: ADP-Glo kinase assay, PfCLK3
Format: biochemical
Conditions: 10 µM ATP; read-out: IC50 PfCLK3
Entries and their measured IC50 follow.
quantity: IC50

INSERT INTO measurements (query_smiles, target_under_test, quantity, measured_result) VALUES
  ('CCN(CCO)CCCOc1ccc2c(Nc3cc(CC(=O)Nc4cccc(F)c4)n[nH]3)ncnc2c1', 'recombinant PfCLK3 kinase domain (Plasmodium falciparum, UniProt Q8IIL5)', 'IC50', '> 10 µM'),
  ('COc1cc2c(Nc3ccc(NC(=O)c4ccccc4)cc3)ncnc2cc1OCCCN1CCOCC1', 'recombinant PfCLK3 kinase domain (Plasmodium falciparum, UniProt Q8IIL5)', 'IC50', '> 10 µM'),
  ('COc1cc(N2CCC(N3CCN(C)CC3)CC2)ccc1Nc1ncc(Cl)c(Nc2ccccc2S(=O)(=O)C(C)C)n1', 'recombinant PfCLK3 kinase domain (Plasmodium falciparum, UniProt Q8IIL5)', 'IC50', '> 10 µM');
